Let's look at some sequences and their measured switch fluorescence ratio.
System: ATP;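 further: ATP exposure 15 min at 22 °C before imaging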
assay: switch fluorescence ratio, 500 uM ATP over buffer (Cy3 cluster intensity, sum of 5 cycles each) (fold (ratio)); higher = stronger signal-on switching upon ATP binding; sequences stand for … in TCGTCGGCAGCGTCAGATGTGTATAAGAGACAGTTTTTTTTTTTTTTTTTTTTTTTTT…TC
experimental conditions: aptamer strand: ATP DNA aptamer (quencher-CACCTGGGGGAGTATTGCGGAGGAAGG + anchor), 100 nM annealed; ATP concentration: 500 uM
endpoint label: switch fluorescence ratio

>  <monomer sequence>
GCCTTACCTG

>  <test target>
ATP;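 further: ATP exposure 15 min at 22 °C before imaging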

>  <endpoint label>
switch fluorescence ratio

>  <result>
1.05

$$$$
>  <monomer sequence>
GACATGGGTG

>  <test target>
ATP;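 further: ATP exposure 15 min at 22 °C before imaging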

>  <endpoint label>
switch fluorescence ratio

>  <result>
1.02

$$$$
>  <monomer sequence>
GCTGCGCATT

>  <test target>
ATP;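 further: ATP exposure 15 min at 22 °C before imaging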

>  <endpoint label>
switch fluorescence ratio

>  <result>
1.94

$$$$
>  <monomer sequence>
GAATCCGTAG

>  <test target>
ATP;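 further: ATP exposure 15 min at 22 °C before imaging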

>  <endpoint label>
switch fluorescence ratio

>  <result>
1.16

$$$$
>  <monomer sequence>
CCGTTTCTGG

>  <test target>
ATP;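 further: ATP exposure 15 min at 22 °C before imaging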

>  <endpoint label>
switch fluorescence ratio

>  <result>
1

$$$$
>  <monomer sequence>
AGTTTTGGGC

>  <test target>
ATP;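 further: ATP exposure 15 min at 22 °C before imaging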

>  <endpoint label>
switch fluorescence ratio

>  <result>
0.976

$$$$
>  <monomer sequence>
TGAGGAATGG

>  <test target>
ATP;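 further: ATP exposure 15 min at 22 °C before imaging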

>  <endpoint label>
switch fluorescence ratio

>  <result>
0.999

$$$$
>  <monomer sequence>
TTGGGTCAAC

>  <test target>
ATP;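 further: ATP exposure 15 min at 22 °C before imaging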

>  <endpoint label>
switch fluorescence ratio

>  <result>
1.05

$$$$
>  <monomer sequence>
CGTAGAGCGA

>  <test target>
ATP;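 further: ATP exposure 15 min at 22 °C before imaging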

>  <endpoint label>
switch fluorescence ratio

>  <result>
1.03

$$$$
>  <monomer sequence>
GTTGGAATGT

>  <test target>
ATP;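 further: ATP exposure 15 min at 22 °C before imaging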

>  <endpoint label>
switch fluorescence ratio

>  <result>
1.03

$$$$
>  <monomer sequence>
TTTCTGGCCG

>  <test target>
ATP;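 further: ATP exposure 15 min at 22 °C before imaging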

>  <endpoint label>
switch fluorescence ratio

>  <result>
0.907

$$$$
>  <monomer sequence>
ATGTGATCGC

>  <test target>
ATP;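 further: ATP exposure 15 min at 22 °C before imaging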

>  <endpoint label>
switch fluorescence ratio

>  <result>
0.986

$$$$
>  <monomer sequence>
AGTAGTTGAA

>  <test target>
ATP;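 further: ATP exposure 15 min at 22 °C before imaging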

>  <endpoint label>
switch fluorescence ratio

>  <result>
0.988

$$$$
>  <monomer sequence>
TGGGAAATTA

>  <test target>
ATP;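 further: ATP exposure 15 min at 22 °C before imaging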

>  <endpoint label>
switch fluorescence ratio

>  <result>
0.999

$$$$
>  <monomer sequence>
TACACATTTT

>  <test target>
ATP;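 further: ATP exposure 15 min at 22 °C before imaging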

>  <endpoint label>
switch fluorescence ratio

>  <result>
1.07

$$$$
>  <monomer sequence>
CTTGATAACG

>  <test target>
ATP;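 further: ATP exposure 15 min at 22 °C before imaging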

>  <endpoint label>
switch fluorescence ratio

>  <result>
1.02

$$$$
>  <monomer sequence>
GAGATCTTTG

>  <test target>
ATP;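 further: ATP exposure 15 min at 22 °C before imaging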

>  <endpoint label>
switch fluorescence ratio

>  <result>
0.967

$$$$
>  <monomer sequence>
TTGACGTATT

>  <test target>
ATP;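 further: ATP exposure 15 min at 22 °C before imaging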

>  <endpoint label>
switch fluorescence ratio

>  <result>
0.987

$$$$
>  <monomer sequence>
GCGTGAGGTG

>  <test target>
ATP;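 further: ATP exposure 15 min at 22 °C before imaging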

>  <endpoint label>
switch fluorescence ratio

>  <result>
1.01

$$$$
>  <monomer sequence>
ACGTCAAGTA

>  <test target>
ATP;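 further: ATP exposure 15 min at 22 °C before imaging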

>  <endpoint label>
switch fluorescence ratio

>  <result>
0.985

$$$$
>  <monomer sequence>
GGTTCTACTC

>  <test target>
ATP;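 further: ATP exposure 15 min at 22 °C before imaging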

>  <endpoint label>
switch fluorescence ratio

>  <result>
1.02

$$$$
>  <monomer sequence>
AAAAACGTAT

>  <test target>
ATP;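 further: ATP exposure 15 min at 22 °C before imaging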

>  <endpoint label>
switch fluorescence ratio

>  <result>
1.03

$$$$
>  <monomer sequence>
TGGGTTTGTG

>  <test target>
ATP;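 further: ATP exposure 15 min at 22 °C before imaging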

>  <endpoint label>
switch fluorescence ratio

>  <result>
0.996

$$$$
>  <monomer sequence>
GGGTTAGACT

>  <test target>
ATP;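 further: ATP exposure 15 min at 22 °C before imaging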

>  <endpoint label>
switch fluorescence ratio

>  <result>
1.07

$$$$
>  <monomer sequence>
CGAGTAACGC

>  <test target>
ATP;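 further: ATP exposure 15 min at 22 °C before imaging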

>  <endpoint label>
switch fluorescence ratio

>  <result>
1.03

$$$$
>  <monomer sequence>
GTAGGGCGTA

>  <test target>
ATP;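 further: ATP exposure 15 min at 22 °C before imaging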

>  <endpoint label>
switch fluorescence ratio

>  <result>
0.964

$$$$
>  <monomer sequence>
AGGTCAACCG

>  <test target>
ATP;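 further: ATP exposure 15 min at 22 °C before imaging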

>  <endpoint label>
switch fluorescence ratio

>  <result>
1.02

$$$$
>  <monomer sequence>
TGGTTTTATA

>  <test target>
ATP;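 further: ATP exposure 15 min at 22 °C before imaging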

>  <endpoint label>
switch fluorescence ratio

>  <result>
0.969

$$$$
>  <monomer sequence>
GCTACTCGAA

>  <test target>
ATP;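 further: ATP exposure 15 min at 22 °C before imaging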

>  <endpoint label>
switch fluorescence ratio

>  <result>
1.06

$$$$
>  <monomer sequence>
TTGCTGTACG

>  <test target>
ATP;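 further: ATP exposure 15 min at 22 °C before imaging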

>  <endpoint label>
switch fluorescence ratio

>  <result>
1.04

$$$$
>  <monomer sequence>
CATAGACGGG

>  <test target>
ATP;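 further: ATP exposure 15 min at 22 °C before imaging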

>  <endpoint label>
switch fluorescence ratio

>  <result>
1.03

$$$$
>  <monomer sequence>
ATCTATTGTG

>  <test target>
ATP;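 further: ATP exposure 15 min at 22 °C before imaging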

>  <endpoint label>
switch fluorescence ratio

>  <result>
0.974

$$$$
